# Species: Rattus norvegicus
# ASSAY DETAILS: Open TG-GATES - Regimen: Single
# Format: toxicity, organism-based, Sprague-Dawley
# Design: regimen Single, gender Male, age 6 weeks
# MEASUREMENT CONDITIONS: in vivo, po, 0 mg/kg, 6 h, tissue Plasma, route gavage, dose level Control
PROPERTY NAME: Ca (mg/dL)
One number for each entry, in mg/dL.

MOLECULE: O=C(O)COc1nn(Cc2ccccc2)c2ccccc12
Ca (mg/dL): 10.7
//
MOLECULE: CC(=O)N1CCN(c2ccc(OCC3COC(Cn4ccnc4)(c4ccc(Cl)cc4Cl)O3)cc2)CC1 (stereo not given)
Ca (mg/dL): 10.8
//
MOLECULE: CC(=O)Nc1ccc2c(c1)Cc1ccccc1-2
Ca (mg/dL): 10.5
//
MOLECULE: CCN(CC)N=O
Ca (mg/dL): 10.3

Turning to the following molecule.
Ask: Note down Ca recorded for CC[C@@H](CO)NCCN[C@@H](CC)CO
Reply: 10.3

###

# Species on record: Rattus norvegicus
# ASSAY DETAILS: Open TG-GATES - Regimen: Daily Repeat
# Assay type: toxicity, organism-based, Sprague-Dawley
# Design: regimen Daily Repeat, gender Male, age 6 weeks
# MEASUREMENT CONDITIONS: in vivo, po, 0 mg/kg, […], tissue Plasma, route gavage, dose level Control, time 14 day
Use 1 as the dividing line for A/G, with the line itself on the true side and lower values as false.

As a guide, the following entries are already answered.
COMPOUND: CC(=O)Nc1ccc2c(c1)Cc1ccccc1-2 [2-ACETYLAMINOFLUORENE]
CATEGORY LABEL: true
//
COMPOUND: CCN(CC)N=O [N-NITROSODIETHYLAMINE]
CATEGORY LABEL: true
//
COMPOUND: CC[C@@H](CO)NCCN[C@@H](CC)CO [ETHAMBUTOL]
CATEGORY LABEL: true

Ask: Could you please find out whether O=C(O)COc1nn(Cc2ccccc2)c2ccccc12 [BENDAZAC] has A/G that meets 1 or exceeds it?
Reply: true

Ask: Could you please find out whether CC(N)=O [ACETAMIDE] has A/G that meets 1 or exceeds it?
Reply: false

###

Would you mind telling me the reported A/G of each entry?
# Organism: Rattus norvegicus
# ASSAY DETAILS: Open TG-GATES - Regimen: Daily Repeat
# Format: toxicity, organism-based, Sprague-Dawley
# Parameters: regimen Daily Repeat, gender Male, age 6 weeks
# MEASUREMENT CONDITIONS: in vivo, po, 0 mg/kg, […], tissue Plasma, route gavage, dose level Control, time 28 day
Numbers only.

Take a look at these entries with their results.
COMPOUND: O=C(O)COc1nn(Cc2ccccc2)c2ccccc12
A/G: 1.4
//
COMPOUND: CC(N)=O [ACETAMIDE]
A/G: 0.8
//
COMPOUND: CC(=O)Nc1ccc2c(c1)Cc1ccccc1-2
A/G: 1.4

Give measured A/G for every item shown.
1. CC[C@@H](CO)NCCN[C@@H](CC)CO
2. CCN(CC)N=O

Reply:
1. 1
2. 1.3

###

# Species on record: Rattus norvegicus
# ASSAY DETAILS: Open TG-GATES - Regimen: Daily Repeat
# Format: toxicity, organism-based, Sprague-Dawley
# Set-up: regimen Daily Repeat, gender Male, age 6 weeks
# MEASUREMENT CONDITIONS: in vivo, po, 0 mg/kg, […], tissue Blood, route gavage, dose level Control, time 14 day
Would you mind telling me the reported Ht of each entry?

Give measured Ht for every item shown.
1. CC(=O)Nc1ccc2c(c1)Cc1ccccc1-2 [2-ACETYLAMINOFLUORENE]
2. CC(=O)N1CCN(c2ccc(OCC3COC(Cn4ccnc4)(c4ccc(Cl)cc4Cl)O3)cc2)CC1 (stereo not drawn) [KETOCONAZOLE]
3. CCN(CC)N=O [N-NITROSODIETHYLAMINE]
4. CC[C@@H](CO)NCCN[C@@H](CC)CO [ETHAMBUTOL]
5. CC(C)Cc1ccc(C(C)C(=O)O)cc1 (stereo not drawn) [IBUPROFEN]
6. O=C(O)COc1nn(Cc2ccccc2)c2ccccc12 [BENDAZAC]

Reply:
42.3%
40.9%
41.9%
42.1%
41.1%
43%

Give measured Ht for every item shown.
1. CC(CCc1ccccc1)NCC(O)c1ccc(O)c(C(N)=O)c1 (stereo not drawn) [LABETALOL]
2. CC(N)=O [ACETAMIDE]

Reply:
42.4%
40.3%

###

# Organism: Rattus norvegicus
# ASSAY DETAILS: Open TG-GATES - Regimen: Daily Repeat
# Format: toxicity, organism-based, Sprague-Dawley
# Set-up: regimen Daily Repeat, gender Male, age 6 weeks
# MEASUREMENT CONDITIONS: in vivo, po, 0 mg/kg, 72 h, tissue Blood, route gavage, dose level Control, time 3 day
PROPERTY NAME: Hb (g/dL)
One number for each entry, in g/dL.

Take a look at these entries with their results.
MOLECULE: CCN(CC)N=O
PROPERTY NAME: Hb
UNITS SYMBOL: g/dL
ENDPOINT RESULT: 13.8

MOLECULE: CC(CCc1ccccc1)NCC(O)c1ccc(O)c(C(N)=O)c1 (configuration not stated)
PROPERTY NAME: Hb
UNITS SYMBOL: g/dL
ENDPOINT RESULT: 13.4

MOLECULE: CC(=O)Nc1ccc2c(c1)Cc1ccccc1-2
PROPERTY NAME: Hb
UNITS SYMBOL: g/dL
ENDPOINT RESULT: 14

MOLECULE: O=C(O)COc1nn(Cc2ccccc2)c2ccccc12
PROPERTY NAME: Hb
UNITS SYMBOL: g/dL
ENDPOINT RESULT: 14.2

MOLECULE: CC(N)=O [ACETAMIDE]
PROPERTY NAME: Hb
UNITS SYMBOL: g/dL
ENDPOINT RESULT: 13.1

Give measured Hb for every item shown.
1. CC(C)Cc1ccc(C(C)C(=O)O)cc1 (configuration not stated)
2. CC[C@@H](CO)NCCN[C@@H](CC)CO

Reply:
[13.2, 13.6]

###

# Organism: Rattus norvegicus
# ASSAY DETAILS: Open TG-GATES - Regimen: Single
# Format: toxicity, organism-based, Sprague-Dawley
# Set-up: regimen Single, gender Male, age 6 weeks
# MEASUREMENT CONDITIONS: in vivo, po, 0 mg/kg, 24 h, tissue Blood, route gavage, dose level Control
PROPERTY NAME: Hb (g/dL)
Answers are plain numbers, in g/dL.

MOLECULE: CCN(CC)N=O
ENDPOINT RESULT: 13.5

MOLECULE: CC(=O)Nc1ccc2c(c1)Cc1ccccc1-2
ENDPOINT RESULT: 13.8

MOLECULE: O=C(O)COc1nn(Cc2ccccc2)c2ccccc12
ENDPOINT RESULT: 13.5

MOLECULE: CC(=O)N1CCN(c2ccc(OCC3COC(Cn4ccnc4)(c4ccc(Cl)cc4Cl)O3)cc2)CC1 (configuration not stated)
ENDPOINT RESULT: 13.3

MOLECULE: CC[C@@H](CO)NCCN[C@@H](CC)CO
ENDPOINT RESULT: 13.9

Give measured Hb for every item shown.
1. CC(CCc1ccccc1)NCC(O)c1ccc(O)c(C(N)=O)c1 (configuration not stated)
2. CC(C)Cc1ccc(C(C)C(=O)O)cc1 (configuration not stated)

Reply:
13
13.1

###

# Species on record: Rattus norvegicus
# ASSAY DETAILS: Open TG-GATES - Regimen: Single
# Assay type: toxicity, organism-based, Sprague-Dawley
# Design: regimen Single, gender Male, age 6 weeks
# MEASUREMENT CONDITIONS: in vivo, po, 0 mg/kg, 9 h, tissue Plasma, route gavage, dose level Control
Would you mind telling me the reported Na of each entry?
Numbers only, in meq/L.

COMPOUND: CC(CCc1ccccc1)NCC(O)c1ccc(O)c(C(N)=O)c1 (configuration not stated)
UNITS SYMBOL: meq/L
Na: 143
--
COMPOUND: O=C(O)COc1nn(Cc2ccccc2)c2ccccc12
UNITS SYMBOL: meq/L
Na: 143
--
COMPOUND: CC(C)Cc1ccc(C(C)C(=O)O)cc1 (configuration not stated)
UNITS SYMBOL: meq/L
Na: 141.4

Give measured Na for every item shown.
1. CC[C@@H](CO)NCCN[C@@H](CC)CO
2. CC(=O)N1CCN(c2ccc(OCC3COC(Cn4ccnc4)(c4ccc(Cl)cc4Cl)O3)cc2)CC1 (configuration not stated)
3. CC(=O)Nc1ccc2c(c1)Cc1ccccc1-2
4. CCN(CC)N=O

Reply:
142
142.2
141
140.6

###

Would you mind telling me the reported gamma-GTP of each entry?
# Species: Rattus norvegicus
# ASSAY DETAILS: Open TG-GATES - Regimen: Single
# Format: toxicity, organism-based, Sprague-Dawley
# Set-up: regimen Single, gender Male, age 6 weeks
# MEASUREMENT CONDITIONS: in vivo, po, 0 mg/kg, 24 h, tissue Plasma, route gavage, dose level Control
One number for each entry, in IU/L.

MOLECULE: CCN(CC)N=O [N-NITROSODIETHYLAMINE]
gamma-GTP [IU/L]: 1
--
MOLECULE: CC(=O)Nc1ccc2c(c1)Cc1ccccc1-2 [2-ACETYLAMINOFLUORENE]
gamma-GTP [IU/L]: 1.2
--
MOLECULE: CC[C@@H](CO)NCCN[C@@H](CC)CO [ETHAMBUTOL]
gamma-GTP [IU/L]: 1.8
--
MOLECULE: CC(=O)N1CCN(c2ccc(OCC3COC(Cn4ccnc4)(c4ccc(Cl)cc4Cl)O3)cc2)CC1 (configuration not stated) [KETOCONAZOLE]
gamma-GTP [IU/L]: 1.2
--
MOLECULE: CC(CCc1ccccc1)NCC(O)c1ccc(O)c(C(N)=O)c1 (configuration not stated) [LABETALOL]
gamma-GTP [IU/L]: 1.2

Give measured gamma-GTP for every item shown.
1. CC(C)Cc1ccc(C(C)C(=O)O)cc1 (configuration not stated) [IBUPROFEN]
2. O=C(O)COc1nn(Cc2ccccc2)c2ccccc12 [BENDAZAC]

Reply:
[1.2, 1.2]
